Entries and their pIC50
- Subject of test: BACE1 (Homo sapiens, UniProt P56817)
- Sequence (P56817 46-501, species assumed): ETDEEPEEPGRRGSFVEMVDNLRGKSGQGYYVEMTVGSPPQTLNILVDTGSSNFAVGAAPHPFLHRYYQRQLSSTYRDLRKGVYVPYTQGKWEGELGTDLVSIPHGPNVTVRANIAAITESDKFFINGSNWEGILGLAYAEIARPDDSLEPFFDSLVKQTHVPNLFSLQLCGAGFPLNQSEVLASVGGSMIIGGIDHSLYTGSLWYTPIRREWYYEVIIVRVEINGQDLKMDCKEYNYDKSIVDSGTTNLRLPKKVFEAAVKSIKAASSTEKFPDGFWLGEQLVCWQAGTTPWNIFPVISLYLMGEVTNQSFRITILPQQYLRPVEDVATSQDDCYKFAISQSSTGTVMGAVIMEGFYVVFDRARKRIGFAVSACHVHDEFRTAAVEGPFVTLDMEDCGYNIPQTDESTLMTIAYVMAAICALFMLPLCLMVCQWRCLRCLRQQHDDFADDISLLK
- Protocol text: In Vitro Enzymatic BACE FRET (Fluorescence Resonance Energy Transfer) Assay
- Type: biochemical
- Applied conditions: Table IV, class symbols; read-out: BACE1 FRET assay
pIC50: −log10 of the molar value.

Before answering, review these 7 worked examples.
Chemical structure	pIC50
CC(C)(C)COc1ccc2c(c1)[C@]1(COC(N)=N1)c1cc(-c3cccc4ncccc34)ccc1O2	6.00 to 7.00
NC1=N[C@]2(CO1)c1cc(Br)ccc1Oc1ncccc12	< 5.30
NC1=N[C@]2(CO1)c1cc(-c3cccnc3)ccc1Oc1ncccc12	6.00 to 7.00
COc1ccc2c(c1)[C@]1(COC(N)=N1)c1cc(C#CC(C)(C)C)cnc1O2	< 5.30
NC1=N[C@@]2(CO1)c1cc(-c3cccnc3)ccc1Oc1ccc(N3C[C@@H]4C[C@H]3CO4)cc12	> 7.00
NC1=N[C@@]2(CO1)c1cc(Br)ccc1Oc1ncccc12	< 5.30
CC(=O)c1cccc(-c2ccc3c(c2)[C@]2(COC(N)=N2)c2cc(-c4cncnc4)ccc2O3)c1	> 7.00

Now for the molecule whose pIC50 we want.
Assign pIC50 to the following record: NC1=N[C@]2(CO1)c1cc(OCC(O)(C(F)(F)F)C(F)(F)F)ccc1Oc1ccc(-c3cccnc3)cc12
> 7.00

These data points were gathered from patent US8426447B2.
